Would you kindly list inhibition for each of these compounds?
Measurement Target: UniProt:P22303
Sequence (P22303 whole entry): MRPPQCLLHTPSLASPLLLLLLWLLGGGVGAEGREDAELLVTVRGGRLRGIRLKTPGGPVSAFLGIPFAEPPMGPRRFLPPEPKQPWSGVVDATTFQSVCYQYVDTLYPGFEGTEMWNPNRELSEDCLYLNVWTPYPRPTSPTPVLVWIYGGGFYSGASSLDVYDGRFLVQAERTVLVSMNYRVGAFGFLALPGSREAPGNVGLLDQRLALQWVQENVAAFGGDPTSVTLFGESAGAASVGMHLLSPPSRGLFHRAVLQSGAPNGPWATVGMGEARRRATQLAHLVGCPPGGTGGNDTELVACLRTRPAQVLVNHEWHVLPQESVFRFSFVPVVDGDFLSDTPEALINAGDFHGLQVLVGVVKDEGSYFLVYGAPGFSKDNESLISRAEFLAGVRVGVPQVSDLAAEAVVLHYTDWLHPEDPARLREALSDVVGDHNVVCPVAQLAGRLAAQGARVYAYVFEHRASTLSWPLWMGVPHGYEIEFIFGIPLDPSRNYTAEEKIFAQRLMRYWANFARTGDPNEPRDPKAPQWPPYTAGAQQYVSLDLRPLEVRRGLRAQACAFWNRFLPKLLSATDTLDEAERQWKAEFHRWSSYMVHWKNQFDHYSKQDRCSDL
Procedure Details: Inhibition of acetylcholinesterase (unknown origin) assessed as reduction in formation of 5-thio-2-nitrobenzoate from acetylthiocholine iodide at 5 ug/ml preincubated for 15 mins followed by substrate addition measured after 30 mins by Ellman's method
Field format: number, assumed %, no unit text.

[in] Form field: reported inhibition of Brc1ccc(C2=CSC3=NC4=C(CNCC4=Cc4ccccc4)C(c4ccccc4)N23)cc1 (centres undefined)
[out] 48.7

[in] Form field: reported inhibition of O=C1/C(=C/c2ccccc2)CN(Cc2ccc3ccccc3c2)C/C1=C\c1ccccc1
[out] 67.9

[in] Form field: reported inhibition of Brc1ccc(C=C2CNCC3=C2N=C2SC=C(c4ccc(Br)cc4)N2C3c2ccc(Br)cc2)cc1 (centres undefined)
[out] 48.3

[in] Form field: reported inhibition of Cc1cccc(CN2C/C(=C\c3ccccc3)C(=O)/C(=C/c3ccccc3)C2)c1
[out] 63.1

[in] Form field: reported inhibition of Cc1ccc(C2=CSC3=NC4=C(CNCC4=Cc4ccc(Cl)cc4)C(c4ccc(Cl)cc4)N23)cc1 (centres undefined)
[out] 74.7

[in] Form field: reported inhibition of Brc1ccc(C=C2CNCC3=C2N=C2SC=C(c4ccc5ccccc5c4)N2C3c2ccc(Br)cc2)cc1 (centres undefined)
[out] 65.7

[in] Form field: reported inhibition of Cc1ccc(C2=CSC3=NC4=C(CNCC4=Cc4ccccc4)C(c4ccccc4)N23)cc1 (centres undefined)
[out] 42.1

[in] Form field: reported inhibition of Cc1ccc(C=C2CNCC3=C2N=C2SC=C(c4ccc(C)cc4)N2C3c2ccc(C)cc2)cc1 (centres undefined)
[out] 60.4

[in] Form field: reported inhibition of Cc1ccc(C2=CSC3=NC4=C(CNCC4=Cc4ccc(Br)cc4)C(c4ccc(Br)cc4)N23)cc1 (centres undefined)
[out] 68.3

====

Measurement Target: UniProt P22303
Procedure Details: Inhibition of acetylcholinesterase (unknown origin) assessed as reduction in formation of 5-thio-2-nitrobenzoate from acetylthiocholine iodide preincubated for 15 mins followed by substrate addition measured after 30 mins by Ellman's method
Readout Name: pIC50
Just the number, please; pIC50 means minus log10 of the concentration in mol/L.

[in] Form field: reported pIC50 of O=C1/C(=C/c2ccccc2)CN(Cc2ccc3ccccc3c2)C/C1=C\c1ccccc1
[out] 5.71

[in] Form field: reported pIC50 of Cc1ccc(C2=CSC3=NC4=C(CNCC4=Cc4ccc(Br)cc4)C(c4ccc(Br)cc4)N23)cc1 (centres undefined)
[out] 6.00

[in] Form field: reported pIC50 of Cc1ccc(C2=CSC3=NC4=C(CNCC4=Cc4ccc(Cl)cc4)C(c4ccc(Cl)cc4)N23)cc1 (centres undefined)
[out] 5.96

[in] Form field: reported pIC50 of Cc1ccc(C=C2CNCC3=C2N=C2SC=C(c4ccc(C)cc4)N2C3c2ccc(C)cc2)cc1 (centres undefined)
[out] 5.74

[in] Form field: reported pIC50 of Cc1cccc(CN2C/C(=C\c3ccccc3)C(=O)/C(=C/c3ccccc3)C2)c1
[out] 5.50

[in] Form field: reported pIC50 of Clc1ccc(C=C2CNCC3=C2N=C2SC=C(c4ccc5ccccc5c4)N2C3c2ccc(Cl)cc2)cc1 (centres undefined)
[out] 5.87

[in] Form field: reported pIC50 of Cc1ccc(/C=C2\CN(Cc3cccc(C)c3)C/C(=C\c3ccc(C)cc3)C2=O)cc1
[out] 5.49

[in] Form field: reported pIC50 of O=C1/C(=C/c2ccc(Br)cc2)CN(Cc2ccc3ccccc3c2)C/C1=C\c1ccc(Br)cc1
[out] 6.08

[in] Form field: reported pIC50 of Brc1ccc(C=C2CNCC3=C2N=C2SC=C(c4ccccc4)N2C3c2ccc(Br)cc2)cc1 (centres undefined)
[out] 5.83

Origin of values: ChEMBL document CHEMBL3871299
